Cited source: PubChem BioAssay

system: Sam68 (KHDRBS1); assay: compounds binding KHDRBS1 protein – biochemical, small-molecule microarray, 635 nm fluorescence, primary screen (AID 1125); conditions: higher = more signal;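 further: score merges 667 nm channel intensity with signal to noise over triplicate slides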
Lab note: compare composite z-score against 1. Equal or greater, write true (1). Smaller, write false (0).

Some solved cases for reference:
molecule=C=CC[C@@]1(C(=O)N2CCCCC2)N=C(c2ccc(OCCCO)cc2)O[C@@H]1c1ccccc1N=[N+]=[N-] qualitative_label="true (1)"
molecule=O=C1O[C@H](c2ccccc2)[C@H](c2ccccc2)N2[C@H]1[C@@H](C(=O)NC[C@H](O)c1ccccc1)[C@]1(C(=O)Nc3ccc(C#CC4=CCCCC4)cc31)[C@H]2c1ccccc1OCCO qualitative_label="true (1)"
molecule=O=C(O)[C@@]1(CCS(=O)(=O)c2ccccc2)N=C(c2ccc(OCCCO)cc2)O[C@H]1c1ccccc1 qualitative_label="true (1)"
molecule=COC(=O)c1c2oc(c1C(=O)OC)C(=O)N[C@@H](C(C)C)Cn1cc(nn1)C1(CCCCC1)NC(=O)N[C@H](CO)CC2 qualitative_label="false (0)"
molecule=Cc1ccc(S[C@]2(C(=O)NCC(C)C)CC(=O)N(Cc3cc(C(F)(F)F)cc(C(F)(F)F)c3)[C@@H]2c2ccc(CO)cc2)cc1 qualitative_label="false (0)"

Input: Identify whether the reported composite z-score of the following molecule is 1 or greater: CCN(CC)c1ccc(N2CC=CC34O[C@@H]5/C=C\CCC(C)OC(=O)C5[C@H]3C(=O)N(CCCCCO)[C@@H]4C2=O)cc1 (stereo not given in full)
Output: false (0)

Input: Textbook exercise: given the entry C=CCN1C(=O)[C@]2(O[C@H](CCO)[C@@H]([Si](C)(C)c3ccc(OC)cc3)[C@@H]2C)c2cc(N(C=O)c3ccccc3)ccc21 , state whether its composite z-score is greater than or equal to 1.
Output: false (0)

Input: Hi team, for CC(=O)n1cc(C(O)C2C=CC3C(=O)NC(=O)C3N2Nc2ccccn2)c2ccccc21 (stereo not given) , is the recorded composite z-score at or above 1?
Output: false (0)

Input: Identify whether the reported composite z-score of the following molecule is 1 or greater: O=C(NC1CC1)[C@@H]1c2ccccc2C(=O)N(C2Cc3ccccc3C2)[C@H]1c1ccc(CO)cc1
Output: true (1)

Input: Please check the record C=CCOC(=O)[C@H]1[C@@H]2C(=O)O[C@@H](c3ccccc3)[C@@H](c3ccccc3)N2[C@@H](c2ccc(OCCOC(=O)[C@@H]3C[C@@H]4C(=O)N5CCC[C@H]5C(=O)N4[C@@H]3c3cccc(OCCO)c3)cc2)[C@]12C(=O)Nc1ccc(I)cc12 and state if its composite z-score is at or above 1.
Output: true (1)
